# Measurement target: α-1 receptor
# Assay name: Alpha-1 receptor binding (3H-prazosin)
Counter-ions that a name gives are not always drawn.
Measured attribute: IC50 (nM)

Record excerpt, results attached:
Compound | IC50 (nM)
COc1ccccc1N1CCN(CCOc2ccc(-c3cn4c(n3)SCC4)cc2)CC1 [Compound 4510471, trihydrochloride] | 75
COc1ccccc1N1CCN(CCCOc2ccc(-c3cc4ccccn4c3)cc2)CC1.Cl.Cl [Compound 4510423, dihydrochloride] | 359
COc1ccccc1N1CCN(CCCOc2ccc(-c3cn4c(n3)SCC4)cc2)CC1 [Compound 4510473] | 48
COc1ccccc1N1CCN(CCCCOc2ccc(-c3cn4ccsc4n3)cc2)CC1.Cl.Cl.Cl [Compound 4510916, trihydrochloride] | 28
COc1ccccc1N1CCN(CCOc2ccc(-c3cn4ccsc4n3)cc2)CC1.Cl.Cl.Cl [Compound 4510470, trihydrochloride] | 101

(I) COc1ccccc1N1CCN(CCCCOc2ccc(-c3cn4cccnc4n3)cc2)CC1 [Compound 4510645]
(II) COc1ccccc1N1CCN(CCCCOc2ccc(-c3cc4ccccn4c3)cc2)CC1 [Compound 4510613]
Quick check, higher IC50 between I and II ? Give the label under which the chosen entry appears.
II
